- assay-target: full-length human PKCι (Homo sapiens, UniProt P41743)
- Construct: Recombinant, full-length human PKCι expressed in Sf21 insect cells is also commercially available
- Sequence (P41743 1-596): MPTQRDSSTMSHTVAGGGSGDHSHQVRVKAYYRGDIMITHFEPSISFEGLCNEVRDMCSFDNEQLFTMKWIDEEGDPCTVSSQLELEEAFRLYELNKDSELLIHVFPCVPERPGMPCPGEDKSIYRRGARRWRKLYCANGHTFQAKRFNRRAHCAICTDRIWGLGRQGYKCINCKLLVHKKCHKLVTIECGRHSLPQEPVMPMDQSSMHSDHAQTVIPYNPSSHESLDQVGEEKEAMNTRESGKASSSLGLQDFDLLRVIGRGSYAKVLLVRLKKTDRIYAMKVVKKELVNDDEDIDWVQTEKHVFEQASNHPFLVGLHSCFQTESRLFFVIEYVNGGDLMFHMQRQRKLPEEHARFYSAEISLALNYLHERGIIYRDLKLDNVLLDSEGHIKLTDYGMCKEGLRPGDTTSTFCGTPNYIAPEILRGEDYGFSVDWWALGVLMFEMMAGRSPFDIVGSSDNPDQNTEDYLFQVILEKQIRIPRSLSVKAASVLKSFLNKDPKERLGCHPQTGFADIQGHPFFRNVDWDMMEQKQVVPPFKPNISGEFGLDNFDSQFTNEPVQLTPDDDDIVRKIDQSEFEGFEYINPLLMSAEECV
- experiment: PKCι IC50 IMAP assay, full-length PKCι at 150 μM ATP
- setup-conditions: read-out: IC50 in IMAP assay against full length PKCi at 150 μM ATP
IC50 values for the compounds below.

Worked examples follow.
* OCC1CN(c2nc(-c3ccncc3)nc3c(Cl)nccc23)C1 | 10 to 40 µM
* Fc1ccc(Nc2cc(-c3nc(N4CCNCC4)c4c(C5CC5)cncc4n3)ccn2)cc1F | < 0.1 µM
* COc1cncc2nc(-c3ccnc(NC(=O)Cc4ccncc4)c3)nc(N3CCNCC3)c12 | < 0.1 µM
* Clc1ccccc1-c1cc2c(-c3nc(N4CCNCC4)c4c(C5CC5)cncc4n3)ccnc2[nH]1 | < 0.1 µM
* NC(=O)N1CCN(c2nc(-c3ccnc(Nc4ccccc4)c3)nc3cncc(C4CC4)c23)CC1 | 0.1 to 1 µM

Req: Note IC50 for the compound shown: COc1cncc2nc(-c3ccnc(NC(=O)CN4CCOCC4)c3)nc(N3CCNCC3)c12
Resp: 0.1 to 1 µM

Req: Note IC50 for the compound shown: Fc1cccc(Cl)c1Nc1cc(-c2nc(N3CCNCC3)c3c(C4CC4)cncc3n2)ccn1
Resp: < 0.1 µM

Req: Note IC50 for the compound shown: Cc1cc(F)c(Nc2cc(-c3nc(N4CCNCC4)c4c(C5CC5)cncc4n3)ccn2)c(F)c1
Resp: < 0.1 µM

* * *

pIC50 values for the compounds below.
- assay-target: full-length human PKCι (Homo sapiens, UniProt P41743)
- Construct: Recombinant, full-length human PKCι expressed in Sf21 insect cells is also commercially available
- experiment: PKCι IC50 IMAP assay, full-length PKCι at 150 μM ATP
- setup-conditions: read-out: IC50 in IMAP assay against full length PKCi at 150 μM ATP
pIC50: −log10 of the molar value.

Worked examples follow.
• COc1cncc2nc(-c3ccnc(Nc4ccccc4)c3)nc(N3CCC(CO)CC3)c12 = 5.00 to 6.00
• Cn1cc(-c2ccc(Nc3cc(-c4nc(N5CCNCC5)c5c(C6CC6)cncc5n4)ccn3)c(F)c2)cn1 = > 7.00
• C[C@@H]1CN(c2nc(-c3ccnc(Nc4nc(F)c(F)cc4F)c3)nc3cncc(C4CC4)c23)C[C@H](C)N1 = > 7.00
• Cc1c2ccc(Nc3cc(-c4nc(N5CCNCC5)c5c(C6CC6)cncc5n4)ccn3)cc2nn1C = > 7.00
• FC1(F)CCC(Nc2cc(-c3nc(N4CCNCC4)c4c(C5CC5)cncc4n3)ccn2)C1 (stereo not shown) = > 7.00
• Fc1cccc(F)c1Nc1cc(-c2nc(N3CCNCC3)c3c(C4CCC4)cncc3n2)ccn1 = > 7.00

Req: Note pIC50 for the compound shown: c1ccc(Nc2cc(-c3nc(N4CCNC5CC54)c4c(C5CC5)cncc4n3)ccn2)cc1 (stereo not shown)
Resp: > 7.00

Req: Note pIC50 for the compound shown: Fc1cnc(Nc2cc(-c3nc(N4CC5CNCC5C4)c4c(C5CC5)cncc4n3)ccn2)c(F)c1 (stereo not shown)
Resp: > 7.00

* * *

- assay-target: full-length human PKCι (Homo sapiens)
- Construct: Recombinant, full-length human PKCι expressed in Sf21 insect cells is also commercially available
- experiment: PKCι IC50 IMAP assay, full-length PKCι at 150 μM ATP
- setup-conditions: read-out: IC50 in IMAP assay against full length PKCi at 150 μM ATP
pIC50: −log10 of the molar value.
pIC50 values for the molecules below.

Worked examples follow.
• O[C@@H]1CN(c2nc(-c3ccnc(Nc4cccc(N5CCOCC5)c4)c3)nc3cncc(C4CC4)c23)CC[C@@H]1O (racemic) [Example 2005] = > 7.00
• N[C@H](CNc1nc(-c2ccncc2)nc2c(-c3cccnc3)nccc12)Cc1ccccc1 [Example 99] = 6.00 to 7.00
• COc1cncc2nc(-c3ccncc3)nc(N3CCCCC3)c12 [Example 151] = 6.00 to 7.00
• Fc1cnc(Nc2cc(-c3nc(N4CCNCC4)c4c(C(F)(F)F)cncc4n3)ccn2)c(F)c1 [Example 2194] = > 7.00
• Fc1cccc(Nc2cc(-c3nc(N4CCNCC4)c4c(Cl)cncc4n3)ccn2)c1F [Example 252] = 6.00 to 7.00
• COc1cncc2nc(-c3ccncc3)nc(N3CC[C@@H](N)C3)c12 [Example 45] = 5.00 to 6.00
• FC(F)(F)C1CN(c2nc(-c3ccnc4[nH]ccc34)nc3cncc(C4CC4)c23)CCN1 (stereo not shown) [Example 1218] = > 7.00
• CS(=O)(=O)N1CCC(Nc2cc(-c3nc(N4CCNCC4)c4c(C5CC5)cncc4n3)ccn2)CC1 [Example 816] = > 7.00
• CC1(C)CN(c2nc(-c3ccnc(Nc4nc(F)c(C5CC5)cc4F)c3)nc3cncc(C4CC4)c23)CCN1 [Example 2125] = > 7.00
• CN1CCN(c2cccc(Nc3cc(-c4nc(N5CCC(O)C(O)C5)c5c(C6CC6)cncc5n4)ccn3)c2)CC1 (single isomer, unassigned) [Example 751] = > 7.00

Req: Note pIC50 for the molecule shown: N[C@H](CNc1nc(-c2ccncc2)nc2cnc(Cl)cc12)Cc1ccccc1 [Example 12]
Resp: > 7.00

Req: Note pIC50 for the molecule shown: CN(c1nc(-c2ccnc(Nc3ncc(F)cc3F)c2)nc2cncc(C3CC3)c12)C1CCNCC1 [Example 2095]
Resp: > 7.00

* * *

- assay-target: full-length human PKCι (Homo sapiens)
- Construct: Recombinant, full-length human PKCι expressed in Sf21 insect cells is also commercially available
- Sequence (P41743 1-596): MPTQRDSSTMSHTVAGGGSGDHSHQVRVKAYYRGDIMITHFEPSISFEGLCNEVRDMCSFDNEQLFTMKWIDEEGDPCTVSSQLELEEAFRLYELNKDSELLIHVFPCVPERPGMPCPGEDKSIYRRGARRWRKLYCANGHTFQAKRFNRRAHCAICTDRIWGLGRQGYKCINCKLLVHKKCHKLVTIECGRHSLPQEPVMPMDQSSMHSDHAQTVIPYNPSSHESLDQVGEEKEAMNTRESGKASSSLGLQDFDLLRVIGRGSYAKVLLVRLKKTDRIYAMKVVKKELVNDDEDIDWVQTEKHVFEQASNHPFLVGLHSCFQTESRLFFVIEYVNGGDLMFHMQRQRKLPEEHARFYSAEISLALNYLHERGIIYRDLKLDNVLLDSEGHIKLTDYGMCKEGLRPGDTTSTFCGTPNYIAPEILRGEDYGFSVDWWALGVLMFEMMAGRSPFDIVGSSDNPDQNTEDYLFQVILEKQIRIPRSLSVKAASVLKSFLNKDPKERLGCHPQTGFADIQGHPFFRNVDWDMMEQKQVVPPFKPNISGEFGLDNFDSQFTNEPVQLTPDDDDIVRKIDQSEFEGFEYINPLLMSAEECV
- experiment: PKCι IC50 IMAP assay, full-length PKCι at 150 μM ATP
- setup-conditions: read-out: IC50 in IMAP assay against full length PKCi at 150 μM ATP
IC50 values for the compounds below.

Worked examples follow.
• Fc1ccc(F)c(Nc2cc(-c3nc(N4CCNCC4)c4c(Cl)cncc4n3)ccn2)c1F [Example 257] = 100 to 1000 nM
• CNC(=O)C1CCN(c2nc(-c3ccnc(Nc4c(F)cccc4F)c3)nc3cncc(C4CC4)c23)CC1 [Example 669] = 1000 to 10000 nM
• NC(=O)COc1cccc(Nc2cc(-c3nc(N[C@@H]4CCNC4)c4ccncc4n3)ccn2)c1 [Example 311] = < 100 nM
• CC(C)(C)c1cc2c(-c3nc(N4CCNCC4)c4c(C5CC5)cncc4n3)c(Cl)cnc2[nH]1 [Example 1229] = < 100 nM
• COc1cncc2nc(-c3ccnc(Nc4ccc5c(C)n(C)nc5c4)c3)nc(N3CCNCC3)c12 [Example 490] = < 100 nM
• C[C@H]1CN(c2nc(-c3ccnc(Nc4nc(F)ccc4F)c3)nc3cncc(C4CCC4)c23)CCN1 [Example 798] = < 100 nM
• COc1cncc2nc(-c3ccnc(Nc4ccccc4)c3)nc(N3CCNC(=O)C3)c12 [Example 438] = 1000 to 10000 nM
• COc1cncc2nc(-c3ccnc(Nc4ccccc4)c3)nc(NC[C@H]3CCCN3)c12 [Example 431] = 100 to 1000 nM

Req: Note IC50 for the compound shown: Clc1cc(-c2nc(N3CCN[C@@H](COCc4ccccc4)C3)c3c(C4CC4)cncc3n2)ccn1 [Example 733]
Resp: 1000 to 10000 nM

Req: Note IC50 for the compound shown: Clc1cccc(Cl)c1Nc1cc(-c2nc(N3CCNCC3)c3c(C4CC4)cncc3n2)ccn1 [Example 539]
Resp: < 100 nM

Req: Note IC50 for the compound shown: FC(F)(F)[C@@H]1CN(c2nc(-c3ccnc4[nH]ccc34)nc3cncc(C4CC4)c23)CCN1 [Example 1214]
Resp: < 100 nM

Req: Note IC50 for the compound shown: COc1ccc(CC(=O)Nc2cc(-c3nc(N[C@@H]4CCNC4)c4ccncc4n3)ccn2)cc1 [Example 335]
Resp: 100 to 1000 nM

Req: Note IC50 for the compound shown: c1cc2c(N[C@@H]3CCNC3)nc(-c3ccnc(Nc4ccc(N5CCOCC5)cn4)c3)nc2cn1 [Example 357]
Resp: < 100 nM

Req: Note IC50 for the compound shown: O[C@@H]1CN(c2nc(-c3ccnc(Nc4ccccc4)c3)nc3cncc(C4CC4)c23)CC[C@@H]1O (racemic) [Example 675]
Resp: 100 to 1000 nM

Req: Note IC50 for the compound shown: Fc1cccc(F)c1Nc1cc(-c2nc(N[C@@H]3CCNC3)c3c(C4CC4)cncc3n2)ccn1 [Example 2035]
Resp: < 100 nM

Req: Note IC50 for the compound shown: Fc1ccc(F)c(Nc2cc(-c3nc(N4CCNCC4)c4c(C5CC5)cncc4n3)ccn2)c1Cl [Example 635]
Resp: < 100 nM
